- Tested on: PC-3
- experimental-details: NCI tumour cell line growth inhibition, 48 h
Activity calls are given as the source filed them. Rule as the data show it: active = GI50 up to about 1.1 µM and inactive = higher.
measured-attribute: GI50

For record Nc1cc(CO)cc(Nc2c3ccccc3nc3occc23)c1 the listed GI50 is 64 µM (inactive)

Given item C=CC(Br)(CBr)CCC1OC1(C)C (stereo not given) , the value recorded as its GI50 is 16.5 µM (inactive)

In plain terms, O=C1[C@H](O)[C@@H]2C(O)O[C@H]3[C@@H]2N1C[C@H]3[Si](c1ccccc1)(c1ccccc1)c1ccccc1 (stereo not given in full) has a documented GI50 of > 100 µM (inactive)

Reported GI50 ( N=C(N)NCCCCCCC(=O)NC(O)C(=O)NCCCCNCCCN (stereo not given) ) = > 750 µM (inactive)

// GI50 value for CCOC(=O)c1sc2c(c1OC(=O)c1ccccc1)c(=O)n(-c1ccccc1)c(=S)n2-c1ccccc1 : 33.7 µM (inactive)

Quick note, GI50 for COc1ccc(-c2c3c(nc4nc(SCCc5ccccc5)nc(N)c24)CCCC3)cc1OC landed at > 100 µM (inactive)

Per the records, this molecule ( FC(F)(F)c1ccc(Cc2nc3cc4ccccc4cc3[nH]2)cc1 ) has GI50 equal to > 100 µM (inactive)

Form: molecule = Nc1ccc2ccc(-c3ccc[nH]3)nc2n1 ; GI50 = > 100 µM (inactive)

The reported GI50 of the molecule CCOC(=O)NC(OCc1ccccc1)(C(=O)OC)C(F)(F)F (stereo not given) was > 100 µM (inactive)

CC(=O)Nc1ccc(NC(=O)CC(=O)Nc2ccc(NC(C)=O)cc2)cc1 yielded GI50 of > 100 µM (inactive)

====

- Test system: NCI/ADR-RES
- experimental-details: NCI tumour cell line growth inhibition, 48 h
Calls of active or inactive are those of the source. Cut-off read from the data, not from the text of the source: active = GI50 up to about 1.1 µM and inactive = higher.
measured-attribute: GI50

Lab book: GI50 of O=c1[nH]nc(Cc2ccc(Cl)cc2)n1/N=C/c1ccc([N+](=O)[O-])o1 noted as 3.16 µM (inactive)

So, C/C(=N\C1CCCCC1)c1ccccc1O ? Its GI50 was > 100 µM (inactive)

compound O=C1CCCc2cc3c(cc21)CC1(C3)Cc2ccc3c(c2C1)C(=O)CCC3 (stereo not given) , GI50 observed: 6.25 µM (inactive)

Entry O=c1ssc2ncccc12 ; GI50 = 32.6 µM (inactive)

Given item COc1ccc(COCC[C@H](C)OC2OC(CO[Si](C)(C)C(C)(C)C)C(OC(=O)CCCN=[N+]=[N-])C(OC(=O)CCCN=[N+]=[N-])C2OC(=O)CCCN=[N+]=[N-])cc1 (stereo not given in full) , the value recorded as its GI50 is 19.1 µM (inactive)

Measured GI50 of CCOC(=O)NC(OCc1ccccc1)(C(=O)OC)C(F)(F)F (stereo not given) : > 100 µM (inactive)

The compound listed as COc1cc(CNCc2cc(OC)c(OC)c(OC)c2)cc(OC)c1OC has a reported GI50 of > 10 µM (inactive)

GI50 in this record for CCOC(=O)C(NCc1ccc2c(c1)OCO2)(NC(=O)c1ccccc1)C(F)(F)F (stereo not given) : 46.2 µM (inactive)

Looking up CN(C)c1ccc(-c2ccc(N(C)C)c3n[se]nc23)c2n[se]nc12 , I found its GI50 recorded as > 100 µM (inactive)

GI50 recorded for this compound, O=[N+]([O-])c1cccnc1NCC1(CO)CCCC1 , is 20 µM (inactive)

====

- System: HL-60
- experimental-details: NCI tumour cell line growth inhibition, 48 h
Active and inactive are the calls of the source. No stated cut-off is given here; in the data, active = GI50 up to about 1.1 µM and inactive = higher.
measured-attribute: GI50

The recorded GI50 for Cc1ccc(/C=C2\CCCC(C(NO)c3ccc(C)cc3)C2=NO)cc1 (stereo not drawn) is 19.5 µM (inactive)

The measured GI50 associated with CCOC1=C2N=C(C(CC)c3ccccc3F)N=C2C(=O)c2ccccc21 (stereo not drawn) reads > 100 µM (inactive)

Kindly note the recorded GI50 for Cc1c(O)c(=O)ccn1CCc1c[nH]c2ccccc12 , which is 19.4 µM (inactive)

// sample COc1cc(OCc2nc3ccccc3n3cccc23)cc(OC)c1OC , its GI50 was 9.35 µM (inactive)

# GI50 of O=C(O)/C(Cl)=C(Cl)/C=N/NC(=O)c1cc2ccccc2cc1O = 5.42 µM (inactive)

GI50 recorded for this molecule, NC(=O)C(=CNC(=S)Nc1ccc(Cl)c(Cl)c1)C(N)=O , is > 60.1 µM (inactive)

So for CC(=O)OCC1OC(n2c(C)c(C(C)=O)c(-c3cccc4ccccc34)c(C#N)c2=S)C(OC(C)=O)C(OC(C)=O)C1OC(C)=O (stereo not drawn) , the logged GI50 turned out to be > 100 µM (inactive)

The molecule identified as CC1=Nc2ccccc2S(=O)(=O)N1 registered its GI50 at > 100 µM (inactive)

Input CCCCCC(O)[C@H]1C(=O)C[C@@H](O[Si](C)(C)C(C)(C)C)[C@@H]1/C=C/CCOCc1ccccc1 (stereo partly drawn) . Output GI50: 2.35 µM (inactive)

The molecule COc1ccc(/C=C2\CCC(C)(CN(C)C)C2=O)cc1 (stereo not drawn) showed GI50 equal to 56.4 µM (inactive)

Lab note: COC(=O)C1=C(\c2ccccc2)c2ccccc2C(=O)N(C2CCCCC2)/C=C\1 gave GI50 of 21.3 µM (inactive)

GI50 reading for N#C/C(=C1\OC(=N)C(c2ccc(Cl)cc2Cl)C1=O)c1ccc(Cl)cc1Cl (stereo not drawn) : > 100 µM (inactive)

Value of GI50 reported for the molecule O=C(N/N=C/c1ccccc1)c1c(F)c(F)c(F)c(F)c1F is > 100 µM (inactive)

Documented GI50 of N=C1NC2(O)C(=O)c3ccccc3C2(O)N1 (stereo not drawn) : > 100 µM (inactive)

For C=CC(Br)(CBr)CCC1OC1(C)C (stereo not drawn) the molecule record lists GI50 as 23.1 µM (inactive)

Reported GI50 of COc1ccc(NC(=O)CC(=O)N2N=C(N(CCC#N)c3ccccc3Cl)CC2c2ccccc2)cc1 (stereo not drawn) : > 100 µM (inactive)

Noted for CCCCCCCSc1nc2c(C(=O)OCC)ncn2c2ccccc12 : its GI50 reads > 100 µM (inactive)

Noted for COC(=O)C(=O)Cc1nc2ccccc2o1 : its GI50 reads > 100 µM (inactive)

Sample OCCNc1ncnc2c1ncn2C1OC(CO)C(O)C1O (stereo not drawn) ; GI50 observed: 33.1 µM (inactive)

Reported GI50 for COc1c(O)ccc(/C=N/NC(=S)NCOCCOC(C)=O)c1OC was > 100 µM (inactive)

The molecule listed as CCOC(=O)C(NC(=O)Nc1ccc(Cl)c(Cl)c1)C(F)(F)F (stereo not drawn) shows GI50 equal to > 100 µM (inactive)

Entry O=[N+]([O-])c1ccccc1S(=O)(=O)c1cc(O)cc2c1NCCC2 — recorded GI50 = 3.47 µM (inactive)

The recorded GI50 for entry O=C1Cc2cn[nH]c2-c2ccccc2N1 equals 29.8 µM (inactive)

====

Where a SMILES comes first, the peptide text is derived from it.
Can you tell me GI50 for the items I'm about to list?

Noted GI50 for CCOC(=O)c1c(N)sc2c1C(C(=O)OCC)CCC2 (stereo not given) , tested on HCT-15: > 100 µM

Lab entry: HCT-15 assay, compound Cc1nc2c(sc3nc4ccccc4n32)c(=O)[nH]1 , GI50 = > 100 µM

GI50 on HCT-15 for CCC(C)C1NC(=O)C2CCCN2C(=O)CNC(=O)C(C)NC(=O)C(Cc2ccccc2)NC(=O)C(C(C)C)NC1=O (stereo not given) (cyclo(GPIVFA); configuration not given here) is > 100 µM

Entry NCC(NC(=O)OCc1ccccc1)C(=O)O (stereo not given) ; assay system HCT-15; GI50 recorded at > 50 µM

// compound Cc1ccc(Nc2[nH]c(=O)[nH]c(=O)c2C)cc1Cl , assay HCT-15, GI50 value: 91.6 µM

Given the compound CCOC(=O)c1sc2c(c1OC(=O)c1ccccc1)c(=O)n(-c1ccccc1)c(=S)n2-c1ccccc1 and test system HCT-15, the measured GI50 is 45.5 µM

Summary: O=C(c1cccs1)N(C(=O)N1CCN(c2ccccc2)CC1)S(=O)(=O)c1ccccc1 , HCT-15, GI50 = 28.5 µM

The measured GI50 that CCOC(=O)C1=C(N2CCCC2)C(=O)C(C(=O)OCC)C1 (stereo not given) showed for HCT-15 is > 100 µM

Noted GI50 for CC(C)(CC(=O)Nc1ccccc1)C(=O)O , tested on HCT-15: > 100 µM

GI50 on HCT-15 for Nc1cnc(Nc2cccc3ccccc23)o1 is > 10 µM

====

For each of the molecules below, state its GI50.
- Tested on: NCI-H522
- experimental-details: NCI tumour cell line growth inhibition, 48 h
The source made the active and inactive calls. No stated cut-off is given here; in the data, active = GI50 up to about 1.1 µM and inactive = higher.

Field GI50 (system: NCI-H522) for entry CCOC(=O)c1cc(C2CCN(Cc3ccccc3)C2=S)c(C(=O)C=[N+]=[N-])[nH]1 (stereo not given) = 20.7 µM (inactive)

Form field GI50 for item CC12CCC(=O)N1c1cccnc1N2 (stereo not given) on NCI-H522: > 100 µM (inactive)

Form field GI50 for item C[C@H](CC[C@@H](O)C(C)(C)O)[C@H]1CC[C@@]2(C)[C@@H]3CC=C4[C@@H](CC[C@H](OC5OC(CO)C(O)C(O)C5O)C4(C)C)[C@]3(C)C(=O)C[C@]12C (stereo not given in full) on NCI-H522: 37.6 µM (inactive)

Record for O=C(c1cccs1)N(C(=O)N1CCN(c2ccccc2)CC1)S(=O)(=O)c1ccccc1 under target or system NCI-H522: GI50 reported as 15.6 µM (inactive)

Item C=CCOc1cc(NC(=S)c2ccoc2C)ccc1OC was tested on NCI-H522; the reported GI50 is > 100 µM (inactive)

The reported NCI-H522 GI50 of Clc1ccc(Cc2nc3ccccc3o2)cc1 is 33.8 µM (inactive)

Fill in: NCI-H522 GI50 for C/C=C1/CN2CCC34c5ccccc5N(C)C23C2CC1C4(C(=O)OC)C(OC(C)=O)O2 (stereo not given) = > 100 µM (inactive)

Readout GI50 for N#CCc1c(F)c(F)c(F)c(F)c1F , test system NCI-H522, was > 100 µM (inactive)

Item N#CCCn1[nH]c(=O)c(Cl)c(Cl)c1=O was tested on NCI-H522; the reported GI50 is 20.2 µM (inactive)

Test item Cc1ccc(Nc2[nH]c(=O)[nH]c(=O)c2C)cc1Cl ; NCI-H522; reported GI50 was > 100 µM (inactive)
